- Experiment Summary: Acute lethality and toxicity, oral administration (gastric probe)
- Assay type: in vivo, Mus musculus
- Cond: mouse, in vivo, po, M. musculus F; po; probit method; read-out: LD50 (mg/kg with reliability limits) 7 days after treatment
Here the recorded LD50 at 168 h is given for each entry.
Endpoint Name: LD50 at 168 h (mg/kg)

C[C@H](CCC(=O)O)[C@H]1CC[C@H]2[C@@H]3[C@H](O)C[C@@H]4C[C@H](O)CC[C@]4(C)[C@H]3CC[C@]12C [Chenodeoxycholic acid] | 5280
C[C@H](CCC(=O)O)[C@H]1CC[C@H]2[C@@H]3[C@@H](O)C[C@@H]4C[C@H](O)CC[C@]4(C)[C@H]3CC[C@]12C [Ursodeoxycholic acid] | 6140
